system: MDA-MB-435; test: NCI in vitro cancer screen, Melanoma; type: cell-based, human; conditions: Homo sapiens, MDA-MB-435
Output True for records whose GI50 is lower than 2000 nM, False for records at or above 2000 nM.

CC(C)=CCc1c(O)cc(/C=C/c2ccc(O)cc2)c(CC=C(C)C)c1O [USYDS6]	False
COc1cc(/C=C/c2cc(O)c(CC=C(C)C)c(O)c2)ccc1O [USYDS13]	False
CC(C)=CCOc1cc(O)cc(/C=C/c2ccc(O)c(O)c2)c1 [USYDS4]	True

Req: Given COc1cc(O)cc(/C=C/c2ccc(O)c(O)c2)c1CC=C(C)C [USYDS9] , is recorded GI50 strictly lower than 2000 nM?
Resp: True

Req: Is the reported GI50 for COc1cc(/C=C/c2cc(O)cc(OCC=C(C)C)c2)ccc1O [USYDS2] strictly below 2000 nM?
Resp: True

Req: GI50 strictly < 2000 nM for this compound? COc1cc(/C=C/c2cc(O)cc(OC)c2CC=C(C)C)ccc1O [USYDS1]
Resp: True

Req: Problem: For the compound CC(C)=CCc1c(O)cc(/C=C/c2ccc(O)c(O)c2)c(CC=C(C)C)c1O [USYDS7] , is GI50 under 2000 nM?
Resp: False

---

Parameter: TGI. Scope: all listed entries.
tested on: K-562; experiment: NCI in vitro cancer screen, Leukemia; format: cell-based, human; settings: K-562
Reply numerically in µM, unit not repeated.

Example molecules with recorded TGI:
COc1cc(/C=C/c2cc(O)c(CC=C(C)C)c(O)c2)ccc1O [USYDS13]	57.5
COc1cc(/C=C/c2cc(O)cc(OC)c2CC=C(C)C)ccc1O [USYDS1]	11.7
CC(C)=CCc1c(O)cc(/C=C/c2ccc(O)cc2)c(CC=C(C)C)c1O [USYDS6]	4.13

Req: What does the data say about its TGI? Entry: CC(C)=CCc1c(O)cc(/C=C/c2ccc(O)c(O)c2)c(CC=C(C)C)c1O [USYDS7]
Resp: 4.78

Req: Consider the molecule shown here: COc1cc(O)cc(/C=C/c2ccc(O)c(O)c2)c1CC=C(C)C [USYDS9] What is its recorded TGI?
Resp: 13.9

---

tested on: HCT-15; assay: NCI in vitro cancer screen, Colon Cancer; format: cell-based, human; conditions: Homo sapiens, HCT-15
Please note: GI50 exactly at 2 µM is f. Only values below 2 µM get t.

Reference set (4 entries):
COc1cc(/C=C/c2cc(O)cc(OCC=C(C)C)c2)ccc1O [USYDS2]	t
CC(C)=CCc1c(O)cc(/C=C/c2ccc(O)cc2)c(CC=C(C)C)c1O [USYDS6]	f
COc1cc(/C=C/c2cc(O)c(CC=C(C)C)c(O)c2)ccc1O [USYDS13]	f
COc1cc(/C=C/c2cc(O)cc(OC)c2CC=C(C)C)ccc1O [USYDS1]	t

Req: Answer whether the compound CC(C)=CCOc1cc(O)cc(/C=C/c2ccc(O)c(O)c2)c1 [USYDS4] has GI50 strictly less than 2 µM
Resp: t

Req: GI50 under 2 µM? Item: COc1cc(O)cc(/C=C/c2ccc(O)c(O)c2)c1CC=C(C)C [USYDS9]
Resp: t

Req: GI50 strictly < 2 µM for this compound? CC(C)=CCc1c(O)cc(/C=C/c2ccc(O)c(O)c2)c(CC=C(C)C)c1O [USYDS7]
Resp: t
